Assay: qHTS Assay for Identifying Gametocytocidal Compounds (AID 743244);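 also: % is scaled to controls: 0 for no effect and ±100 for the full control effect; actives lower the fluorescent signal which means gametocytes are killed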
Settings: P. falciparum 3D7 stage III-V gametocytes, alamarBlue, 72 h; stronger effect = lower value
Records with an inconclusive call do not appear.
Readout Kind: max response (%)
Quick reminder: number only, in %, skip the unit.

Some solved entries appear below for comparison.
Compound: CCCC(=O)Nc1ccc(OCC(O)CNC(C)C)c(C(C)=O)c1 (configuration not stated)
Unit Info: %
max response: 19.2
//
Compound: CCN(CCCc1ccccc1)CCCc1ccccc1
Unit Info: %
max response: 0.141
//
Compound: NC(=O)c1cc[n+](CC2=C(C(=O)[O-])N3C(=O)[C@@H](NC(=O)Cc4cccs4)[C@H]3SC2)cc1
Unit Info: %
max response: 1.11

Q) Item CC(=O)OCC(=O)[C@@]1(O)CC[C@H]2[C@@H]3CCC4=CC(=O)C=C[C@]4(C)[C@H]3[C@@H](O)C[C@@]21C has what recorded max response?
A) -0.763

Q) Please answer likewise for Cc1cc(=O)n(-c2ccccc2)n1C
A) 18.5

Q) Please answer likewise for CO/N=C1\CN(c2nc3c(cc2F)c(=O)c(C(=O)O)cn3C2CC2)CC1CN (configuration not stated)
A) -1.09

Q) Please answer likewise for NCCCC[C@H](N[C@@H](CCc1ccccc1)C(=O)O)C(=O)N1CCC[C@H]1C(=O)O
A) -3.1

Q) Please answer likewise for C#C[C@]1(O)CC[C@H]2[C@@H]3CCc4cc(OC5CCCC5)ccc4[C@H]3CC[C@@]21C
A) 6.16

Q) Please answer likewise for CC(Cc1ccccc1)(NC(=O)CN)c1ccccc1 (configuration not stated)
A) -4.06

Q) Please answer likewise for CCN1CCC[C@H]1CNC(=O)c1c(OC)ccc(Br)c1OC
A) -8.08

Q) Please answer likewise for C=CCc1ccc(O)c(OC)c1
A) 4.9

Q) Please answer likewise for CCCCOc1ccc(OCCCN2CCOCC2)cc1
A) 1.4

Q) Please answer likewise for CNCCC(Oc1ccccc1C)c1ccccc1 (configuration not stated)
A) 9.68

Q) Please answer likewise for CCOC(=O)OC(C)OC1=C(C(=O)Nc2ccccn2)N(C)S(=O)(=O)c2ccccc21 (configuration not stated)
A) -4.24

Q) Please answer likewise for CC/C(=C(/CC)c1ccc(O)cc1)c1ccc(O)cc1
A) 26.7
